Target: T1, UEVLD 1-145 UEV (domain begin residue: 1, domain end residue: 145), Q8IX04
T1 chain: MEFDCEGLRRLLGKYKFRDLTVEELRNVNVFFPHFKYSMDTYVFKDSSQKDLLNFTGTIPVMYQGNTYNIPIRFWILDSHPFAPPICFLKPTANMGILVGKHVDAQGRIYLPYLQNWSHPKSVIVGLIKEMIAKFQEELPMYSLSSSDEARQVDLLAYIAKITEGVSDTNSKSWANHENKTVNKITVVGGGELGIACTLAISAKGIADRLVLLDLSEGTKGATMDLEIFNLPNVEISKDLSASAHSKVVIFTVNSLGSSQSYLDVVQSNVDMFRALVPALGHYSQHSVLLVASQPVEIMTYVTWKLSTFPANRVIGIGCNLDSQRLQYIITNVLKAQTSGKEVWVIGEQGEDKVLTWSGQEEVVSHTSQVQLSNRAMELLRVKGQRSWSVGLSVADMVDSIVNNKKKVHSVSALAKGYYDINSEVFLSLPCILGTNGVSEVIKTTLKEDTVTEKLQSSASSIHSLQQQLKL
Experiment: phage ELISA signal ratio (GST-PRM binding over GST background); higher = stronger binding of peptide-phage to the PRM
measured-attribute: phage ELISA signal ratio
No unit in the answer, please; the number alone is enough.

{"binder": "ERFTLFQSSMDSILMF", "phage ELISA signal ratio": 26}
{"binder": "APFTLWESSMEALGEL", "phage ELISA signal ratio": 23.3}
{"binder": "FDWRETLWESSQWMIA", "phage ELISA signal ratio": 22.7}

Ask: Looking for the measured phage ELISA signal ratio of `VPWSENQEWQWIFEAV` , can you help?
Result: 29.3

Ask: Look up phage ELISA signal ratio: `EFEWIDHFLGNMESGL`
Result: 8.99

Ask: Would you mind telling me what phage ELISA signal ratio value was observed for `WRQDLETESLMQWFLW` ?
Result: 15.2
